# STUDY SYSTEM: UniProt:P10980
# Sequence (P10980 whole entry): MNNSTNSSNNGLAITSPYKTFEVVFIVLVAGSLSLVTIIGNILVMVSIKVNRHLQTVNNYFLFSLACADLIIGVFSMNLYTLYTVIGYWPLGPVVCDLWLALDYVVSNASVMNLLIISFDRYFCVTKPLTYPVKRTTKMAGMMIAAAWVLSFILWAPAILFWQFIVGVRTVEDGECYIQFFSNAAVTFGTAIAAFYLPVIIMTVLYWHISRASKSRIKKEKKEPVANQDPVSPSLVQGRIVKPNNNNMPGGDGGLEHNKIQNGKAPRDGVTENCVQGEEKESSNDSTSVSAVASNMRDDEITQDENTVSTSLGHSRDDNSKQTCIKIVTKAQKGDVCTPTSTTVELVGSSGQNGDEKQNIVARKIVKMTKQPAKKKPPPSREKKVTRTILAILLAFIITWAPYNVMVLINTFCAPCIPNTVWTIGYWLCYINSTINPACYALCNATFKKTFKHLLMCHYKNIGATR
PARAMETER: IC50 (nM)
Please respond with the number in nM and leave the unit unwritten.

Data request, read-out IC50, for O=C1Nc2cccnc2N(C(=S)CC2CCCN3CCCC[C@@H]23)c2ccccc21 (stereo partly drawn) 760

Try this compound too: O=C1c2ccccc2-n2c(nc3cccnc32)CN1C[C@@H]1CCCN2CCCC[C@H]12 12000

Try this compound too: O=C1Nc2cccnc2N(C(=O)CSCC2CCCN3CCCCC23)c2ccccc21 (stereo not drawn) 760

The measurements presented in this section are drawn from ChEMBL document CHEMBL1131857.
